target: UniProt P35414; experiment: biochemical; conditions: [35S]GTPγS binding, CHO membranes expressing human APJ receptor; read-out: Activity hAPJ SPA EC50 IP
Sequence (P35414 whole entry): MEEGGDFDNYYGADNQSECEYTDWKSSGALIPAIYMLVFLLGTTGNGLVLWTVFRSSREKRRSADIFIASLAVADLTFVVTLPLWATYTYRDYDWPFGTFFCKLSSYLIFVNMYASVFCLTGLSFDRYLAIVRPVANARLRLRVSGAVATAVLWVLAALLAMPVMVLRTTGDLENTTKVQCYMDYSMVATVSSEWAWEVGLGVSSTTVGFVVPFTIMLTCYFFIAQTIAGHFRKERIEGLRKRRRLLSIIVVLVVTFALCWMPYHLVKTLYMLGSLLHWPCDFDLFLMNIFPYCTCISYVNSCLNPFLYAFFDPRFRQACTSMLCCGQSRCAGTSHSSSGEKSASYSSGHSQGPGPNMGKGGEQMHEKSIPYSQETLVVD
pEC50: −log10 of the molar value.
Decide by pEC50: equal to or exceeding 9 means 1 (yes), less means 0 (no).

[[record]]
molecule = "COc1cccc(OC)c1-n1c(NS(=O)(=O)[C@@H](C)[C@H](C)c2ncc(F)cn2)nnc1-c1ccn(C(F)F)n1"
discrete_label = "1 (yes)"

[[record]]
molecule = "Cc1cnc([C@@H](C)[C@H](C)S(=O)(=O)Nc2nnc(-c3cnn4c3CCC4)n2-c2c(F)cccc2F)nc1"
discrete_label = "0 (no)"

[[record]]
molecule = "COc1cccc(OC)c1-n1c(NS(=O)(=O)[C@H](C)[C@@H](OC)c2ccc(C#N)cc2C#N)nnc1-c1ccn(C)n1 (single isomer, unassigned) [Example 266.0]"
discrete_label = "1 (yes)"


Lab note: next molecule to report on.
Request: Quick check, pEC50 >= 9? COc1nc[nH]c(=O)c1-n1c(NS(=O)(=O)[C@@H](C)Cc2ncc(F)cn2)nnc1-c1ccn(C)n1 (racemic)
Response: 0 (no)
